Biological target: RXFP3 (Homo sapiens, UniProt Q9NSD7)
Construct: purchased Promega (in-house HiBiT-GPCR construct library, NanoBRET)
Sequence (Q9NSD7 whole entry): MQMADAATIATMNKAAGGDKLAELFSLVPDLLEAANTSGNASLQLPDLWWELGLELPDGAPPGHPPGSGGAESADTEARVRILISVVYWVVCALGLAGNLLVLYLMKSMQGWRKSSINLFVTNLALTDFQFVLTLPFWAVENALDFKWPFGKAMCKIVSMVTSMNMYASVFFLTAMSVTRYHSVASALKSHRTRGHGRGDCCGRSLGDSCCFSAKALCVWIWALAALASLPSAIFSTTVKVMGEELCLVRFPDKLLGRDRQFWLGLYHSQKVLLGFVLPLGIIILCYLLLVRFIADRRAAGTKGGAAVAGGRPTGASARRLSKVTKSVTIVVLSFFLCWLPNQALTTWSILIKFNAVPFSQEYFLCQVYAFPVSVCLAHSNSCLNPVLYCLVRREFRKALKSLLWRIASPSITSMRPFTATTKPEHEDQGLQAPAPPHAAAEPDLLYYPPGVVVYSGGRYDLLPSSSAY
Assay: NanoBRET screen HiBiT-RXFP3 in HEK293
Assay type: binding
Conditions: RXFP3; tracer 0.1μM
Assign labels as follows, please: 1 for NanoBRET Fold Response below 1; -1 for NanoBRET Fold Response equal to or exceeding 1.

See these solved cases before continuing.
O=C(CCOCCOCCOCCOCCNC(=O)CCc1ccc2n1[B-](F)(F)[N+]1=C(c3ccc[nH]3)C=CC1=C2)NCCCN1CCN(C2=Nc3ccccc3Oc3ccc(Cl)cc32)CC1 [Loxapine-a-2-NB590] = -1
Cc1cc2c(s1)Nc1ccccc1N=C2N1CCN(CCCNC(=O)CCOCCOCCOCCOCCNC(=O)CCc2ccc3n2[B-](F)(F)[N+]2=C(c4ccc[nH]4)C=CC2=C3)CC1 [Olanzapine-a-2-NB590] = 1
CC(C)N(CC[C@H](c1ccccc1)c1cc(CCNC(=O)CCOCCOCCOCCOCCNC(=O)CCc2ccc3n2[B-](F)(F)[N+]2=C(c4ccc[nH]4)C=CC2=C3)ccc1O)C(C)C [Tolterodine-2-NB590] = -1

# check: NanoBRET Fold Response < 1 for N#CN=C(NCCCOc1cccc(CN2CCCCC2)c1)NCCNC(=O)CCOCCOCCOCCOCCNC(=O)CCc1ccc2n1[B-](F)(F)[N+]1=C(c3ccc[nH]3)C=CC1=C2 [Aminopotentidine-2-NB590]
-1

Try this compound too: CCCn1c(=O)c2[nH]c(-c3ccc(OCC(=O)NCCNC(=O)CCOCCNC(=O)c4ccc(CNC(=O)CCc5ccc6n5[B-](F)(F)[N+]5=C(c7ccc[nH]7)C=CC5=C6)cc4)cc3)nc2n(CCC)c1=O [XAC-3-NB590]
1

Cited source: paper PMC8151276
